# Tested on: OVCAR-8 ovarian
# assay.explanation: NCI tumour cell line growth inhibition, 48 h; in the data active = GI50 below about 0.43 µM; inactive = the rest
Outcome codes: active, inactive

>  <compound>
COc1ccc(C(=O)c2cc3c(N)c(C(=O)Nc4cccc(Cl)c4C)sc3nc2C)cc1

>  <class>
active

$$$$
>  <compound>
O=C(CCCCCCSc1nc(-c2ccc(Cl)cc2)cc(-c2ccc(Cl)cc2)n1)NO

>  <class>
inactive

$$$$
>  <compound>
CCCCCCCC(=O)SCC/C=C/[C@@H]1CC(=O)NCc2nc(co2)C2=N[C@@](C)(CS2)C(=O)N[C@@H](C(C)C)C(=O)O1

>  <class>
active

$$$$
>  <compound>
C#CCOc1cccc(Nc2ncnc3ccc(NC(=O)CCl)cc23)c1

>  <class>
active

$$$$
>  <compound>
C=C1C(=O)O[C@H]2[C@H]1CC/C(COC(=O)c1ccc(C#N)cc1)=C\CC[C@@]1(C)O[C@@H]21

>  <class>
inactive

$$$$
>  <compound>
C[C@H]1C(Oc2ccc(O)cc2)OC2OC3(C)CCC4[C@H](C)CCC1C24OO3 (some centres not stated)

>  <class>
inactive

$$$$
>  <compound>
O=C(OCc1ccc2c(Cl)cc(Cl)c(O)c2n1)c1cc2ccccc2[nH]1

>  <class>
inactive

$$$$
>  <compound>
O=C([O-])c1ccc(C(=O)[O-])cc1.O=C([O-])c1ccc(C(=O)[O-])cc1.[Mo+2].[Mo+2]

>  <class>
inactive

$$$$
>  <compound>
CCCSC1=NC2C(N(CC)C(=O)N2CC)N1/N=C/C=C/c1ccccc1[N+](=O)[O-] (configuration not stated)

>  <class>
inactive

$$$$
>  <compound>
CCCCC#CC#Cc1cccc(=O)o1

>  <class>
inactive

$$$$
>  <compound>
O=[N+]([O-])c1ccc2ncccc2c1Cl

>  <class>
inactive

$$$$
>  <compound>
O=C1CCc2c(sc3[nH]c(=S)n(Cc4ccccc4)c(=O)c23)C1

>  <class>
inactive

$$$$

----------
# Tested on: DU-145 prostate
# assay.explanation: NCI tumour cell line growth inhibition, 48 h
Overview of reported TGI across a group of compounds:

>  <compound>
Cc1cn(C2CC(N)C(C(=O)O)O2)c(=O)[nH]c1=O (centres undefined)

>  <TGI>
> 100 µM

$$$$
>  <compound>
COc1cc2c(cc1OC)C(N)CC2=O (centres undefined)

>  <TGI>
> 100 µM

$$$$
>  <compound>
Cc1cc(NS(=O)(=O)c2ccc(Nc3c4ccccc4nc4ccc(C(=O)Nc5ccc(S(N)(=O)=O)cc5)cc34)cc2)no1

>  <TGI>
> 100 µM

$$$$
>  <compound>
N#Cc1ccc(C(c2ccc(C#N)cc2)n2cncn2)cc1

>  <TGI>
> 5000 µM

$$$$

----------
# Test system: UACC-257 melanoma
# assay.explanation: NCI tumour cell line growth inhibition, 48 h
Overview of reported TGI across a group of compounds:
measurement.name: TGI

>  <compound>
Cc1ccsc1/C=N/Nc1nncc2ccccc12

>  <recorded.measurement>
> 100 µM

$$$$
>  <compound>
O=C(Nc1ccccc1F)c1cc2ccc(O)cc2oc1=Nc1cccc(C(F)(F)F)c1

>  <recorded.measurement>
> 100 µM

$$$$
>  <compound>
COc1cc(/C=C2/C(=O)N(C(=O)c3ccc(Cl)cc3)N=C2C)cc(OC)c1OC

>  <recorded.measurement>
> 100 µM

$$$$
>  <compound>
O=C(/C=C/c1ccc(O)c(O)c1O)OCCc1ccccc1

>  <recorded.measurement>
> 100 µM

$$$$
>  <compound>
Cc1nc(N)sc1C(=O)Nc1cc(C(=O)NCCCN(C)C)n(C)c1

>  <recorded.measurement>
> 100 µM

$$$$
>  <compound>
NC(=Nc1ccc(O)cc1)S(=O)O

>  <recorded.measurement>
> 100 µM

$$$$
>  <compound>
Nc1c(C(=O)Nc2ccccc2F)sc2nc3c(cc12)C(=O)CCC3

>  <recorded.measurement>
> 100 µM

$$$$
>  <compound>
Nc1nc(Cl)c2nnn(CC3CCC(CO)C3)c2n1 (stereo unspecified)

>  <recorded.measurement>
> 100 µM

$$$$
>  <compound>
Cc1cc(C)c(S(=O)(=O)ONC(=O)OC(C)(C)C)c(C)c1

>  <recorded.measurement>
> 100 µM

$$$$
>  <compound>
N#Cc1ccc(C(c2ccc(C#N)cc2)n2cncn2)cc1

>  <recorded.measurement>
> 5000 µM

$$$$
>  <compound>
O=C(NO)C(=O)Nc1ccc(Cl)cc1[N+](=O)[O-]

>  <recorded.measurement>
> 100 µM

$$$$
>  <compound>
COC(OC)[C@@H](C)[C@H](O)[C@](C)(O)C1OC(C)(C)OC(C(C)C=C(C)C)C1C (stereo partly specified)

>  <recorded.measurement>
> 100 µM

$$$$
>  <compound>
O=C(O)c1ccccc1/C=N/NC1=NCCCCN1

>  <recorded.measurement>
> 100 µM

$$$$
>  <compound>
COc1ccc(-c2cc(=O)c3c(O)cc(C)cc3o2)cc1OC

>  <recorded.measurement>
> 100 µM

$$$$
>  <compound>
C/C(Cc1ccc(Cl)cc1)=C(/c1ccc(Cl)cc1)c1ccc(OCCN(C)C)cc1

>  <recorded.measurement>
9.38 µM

$$$$
>  <compound>
C=CC[C@@]1(C)CCCCCCCCC[C@@](C)(CC=C)C1=O

>  <recorded.measurement>
58.6 µM

$$$$
>  <compound>
Cc1ccc(O)c(C(=O)CCCC(=O)c2cc(C)ccc2O)c1

>  <recorded.measurement>
> 100 µM

$$$$
>  <compound>
c1ccc(COCC2OC3c4ccccc4COC3C2OCc2ccccc2)cc1 (stereo unspecified)

>  <recorded.measurement>
> 100 µM

$$$$
>  <compound>
CN(CCCNC(=O)c1nn(-c2ccc(Cl)cc2Cl)c2c1ccc1ccccc12)CCCNC(=O)c1nn(-c2ccc(Cl)cc2Cl)c2c1ccc1ccccc12

>  <recorded.measurement>
3.26 µM

$$$$
>  <compound>
CCCCCCCN1C(=O)C(O)(c2ccc(C3(O)C(=O)N(CCCCCCC)c4ccccc43)s2)c2ccccc21 (stereo unspecified)

>  <recorded.measurement>
4.42 µM

$$$$
>  <compound>
Cc1c(C)c2c(c(N)c1C#N)C(=O)N(CCN1CCNCC1)C2=O

>  <recorded.measurement>
> 100 µM

$$$$
>  <compound>
O=[N+]([O-])c1ccc2ncccc2c1Cl

>  <recorded.measurement>
29.3 µM

$$$$
>  <compound>
CCOC(=O)c1ccc(-n2c(SCC)nc3sc(C)c(C)c3c2=O)cc1

>  <recorded.measurement>
> 100 µM

$$$$
>  <compound>
COc1cc2nc3cc([N+](=O)[O-])ccc3c(NCCCNCC(C)(C)O)c2cc1OC

>  <recorded.measurement>
3.1 µM

$$$$
>  <compound>
NC(=O)/C=C/NC(=O)/C=N\O

>  <recorded.measurement>
> 100 µM

$$$$
>  <compound>
COC(=O)[C@@H]1C[C@H]([Se]c2ccccc2)CN1C(=O)OCc1ccccc1

>  <recorded.measurement>
> 100 µM

$$$$
>  <compound>
O=C(CCN1CCOCC1)Nc1ccc2sc3ccccc3c(=O)c2n1

>  <recorded.measurement>
> 100 µM

$$$$
>  <compound>
COc1cccc2[nH]c(-c3ccccn3)nc12

>  <recorded.measurement>
> 100 µM

$$$$
>  <compound>
COc1cccc(CC2Cc3ccccc3CC(=O)N2)c1 (stereo unspecified)

>  <recorded.measurement>
> 100 µM

$$$$
>  <compound>
C#Cc1cccc(Nc2nc3ccc([N+](=O)[O-])cc3nc2Nc2cccc(C#C)c2)c1

>  <recorded.measurement>
0.602 µM

$$$$
>  <compound>
O=C(NCCCCCCCCNC(=O)c1cccc2ccccc12)c1cccc2ccccc12

>  <recorded.measurement>
> 100 µM

$$$$

----------
Overview of reported TGI across a group of molecules:
# System: SK-MEL-2 melanoma
# assay.explanation: NCI tumour cell line growth inhibition, 48 h

>  <molecule>
Cc1c2c(n(CCN(C)C)c1C)NN=C(C#N)S2(=O)=O

>  <TGI>
> 100 µM

$$$$
>  <molecule>
OC(c1ccccn1)C1CNc2ccccc21 (centres undefined)

>  <TGI>
> 100 µM

$$$$
>  <molecule>
O=C(CC(=O)C1CCOC1=O)C(=O)Nc1ccc(Cl)cc1Cl (centres undefined)

>  <TGI>
> 100 µM

$$$$
>  <molecule>
CC/C(C)=C1\OC(=O)C(C)C(O)C(Cc2cccnc2)NC(=O)C(NC(=O)c2ncccc2O)C(C)OC1=O (centres undefined)

>  <TGI>
> 100 µM

$$$$

----------
# Tested on: MDA-MB-231 breast
# assay.explanation: NCI tumour cell line growth inhibition, 48 h

>  <compound>
COc1ccc(C(=O)COc2cccc(/C=C3\CSc4ccc(C)cc4C3=O)c2)cc1

>  <TGI>
> 100 µM

$$$$
>  <compound>
NC(=O)/C=C/NC(=O)/C=N\O

>  <TGI>
> 100 µM

$$$$
>  <compound>
Cc1cc(C)nc(SC2=C(Nc3cccc(Cl)c3C)C(=O)N(Cc3ccccc3)C2=O)n1

>  <TGI>
> 160 µM

$$$$
>  <compound>
OC1CN2Cc3cc4c(cc3[C@]13C=C[C@@H](O)CC23)OCO4 (stereo not given in full)

>  <TGI>
> 100 µM

$$$$
>  <compound>
Cn1c(=S)c2[nH]c(SCCN3CCCC3)nc2n(C)c1=O

>  <TGI>
> 100 µM

$$$$
